The reported numbers originate from PubChem BioAssay AID686979.

Assay: qHTS for Inhibitors of human tyrosyl-DNA phosphodiesterase 1 (TDP1): qHTS in cells in presence of CPT; also: nearly all actives have a fitted effect of over 55% in size
Conditions: chicken DT40 Tdp1-/-;hTDP1 cells + 20 nM CPT, ATP luminescence, 48 h; series mostly up to 46.2 µM
The whole screen tested about 420,000 compounds, of which about 50,000 (12%) were called active. Not shown: some 26% with an inconclusive outcome. Calls follow the shape of the dose curve; as a rule, active = well fitted inhibition curve with a large enough effect; inconclusive = small, poorly fitted or top-dose-only effect; inactive = flat fitted curve, though single readings scatter. This is one part of a sample in which actives are shown more often than they occur.
Field 'call' accepts label 1 = active, label 0 = inactive

Please review the following examples before continuing.
Ask | Per the records of this test, what outcome belongs to CC(C(=O)Nc1ccc(F)c(F)c1F)N1CCCCCC1 (stereo unspecified) ?
Reply | label 0

Ask | Per the records of this test, what outcome belongs to CN(CC(=O)Nc1c(Cl)cccc1Cl)C(=O)c1ccncc1 ?
Reply | label 0

Ask | Per the records of this test, what outcome belongs to CC1CN(C2CCCCC2)c2nc3c(c(=O)n(C)c(=O)n3C)n2C1 (stereo unspecified) ?
Reply | label 0

Ask | Per the records of this test, what outcome belongs to CC(=O)OCC(C)n1c(=O)c2ccccc2n1C(C)=O (stereo unspecified) ?
Reply | label 0

Ask | Per the records of this test, what outcome belongs to COc1ccccc1N(CC(=O)Nc1ccc(C(F)(F)F)cc1)S(C)(=O)=O ?
Reply | label 0

Now, please, on to the next compound.
Ask | Per the records of this test, what outcome belongs to Cc1cccc(N2CC(C)Cn3c2nc2c3c(=O)n(CC(=O)OCc3ccccc3)c(=O)n2C)c1 (stereo unspecified) ?
Reply | label 1
